- targetUnderTest: KRas G12D (Homo sapiens (Human), UniProt P01116, G12D)
- Sequence (P01116-2 other isoform, or with tags, fused parts or gaps G12D): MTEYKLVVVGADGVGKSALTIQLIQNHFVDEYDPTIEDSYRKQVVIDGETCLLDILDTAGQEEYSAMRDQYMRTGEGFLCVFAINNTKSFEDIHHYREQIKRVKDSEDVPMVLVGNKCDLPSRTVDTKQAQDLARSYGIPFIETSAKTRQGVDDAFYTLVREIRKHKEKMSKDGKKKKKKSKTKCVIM
- assayOverview: KRas G12D Surface Plasmon Resonance (SPR) Binding Assay
- conditionSet: Biacore T200, immobilized biotinylated KRAS protein, 1:1 binding model
Hi there, I'd appreciate the recorded pKd for every entry that follows.
A value of pKd is the negative decimal logarithm of a concentration given in moles per litre.

Data request, read-out pKd, for `Oc1cc(-c2ncc3c(N4C[C@H]5CC[C@@H](C4)N5)nc(OCCc4ccccc4F)nc3c2F)c2ccccc2c1`
5.94

Similarly, CN1CCC[C@H]1COc1nc(N2C[C@H]3CC[C@@H](C2)N3)c2cnc(-c3cccc4cccc(CCC#N)c34)c(F)c2n1 [Example 117, bis(2,2,2-trifluoroacetate)] ?
6.00

Same read-out for OCC(COc1nc(N2C[C@H]3CC[C@@H](C2)N3)c2cnc(-c3cccc4cccc(Cl)c34)c(F)c2n1)c1cccnc1 (stereo partly drawn) ?
5.95

Next entry: `O[C@@H]1C[C@@H]2CN(c3nc(OCC45CCCN4CCC5)nc4c(F)c(-c5cccc6cccc(Cl)c56)ncc34)C[C@H]1N2`
9.40

Now try `Cn1c(CCOc2nc(N3C[C@H]4CC[C@@H](C3)N4)c3cnc(-c4cc(O)cc5ccccc45)c(F)c3n2)nc2ccccc21` .
6.75

----------
- System: KRas G12D-mediated phosphorylation of ERK
- assayOverview: Inhibition of KRas G12D-mediated phosphorylation of ERK in AGS cells
- Format: cell-based
- conditionSet: Homo sapiens; AGS cells expressing G12D, 3 hours, phospho-ERK normalized to GAPDH
// assign class 1 if IC50 falls strictly below 900 nM, else class 0 (ties count as class 0)

A record lists `CC(C)N1CCC[C@H]1COc1nc(N2C[C@H]3C[C@@H](O)[C@@H](C2)N3)c2cnc(-c3cccc4cccc(Cl)c34)c(F)c2n1` . Is its IC50 below 900 nM?
class 0

Now this one: `Oc1cc(-c2ncc3c(N4C[C@H]5CC[C@@H](C4)N5)nc(OC[C@@]45CCCN4C[C@H](F)C5)nc3c2F)c2c(Cl)cccc2c1`
class 1

And `O=C(OC[C@H]1CC[C@@]2(COc3nc(N4CC5CCC(C4)N5)c4cnc(-c5cccc6cccc(Cl)c56)c(F)c4n3)CCCN12)N1CCCCC1` ?
class 1

Item: `CCCOc1nc(N2C[C@H]3CC[C@@H](C2)N3)c2cnc(-c3cc(O)cc4ccccc34)c(F)c2n1`
class 0

Try this molecule next: `Cc1nccn1CCOc1nc(N2CC3CCC(C2)N3)c2cnc(-c3cc(O)cc4ccccc34)c(F)c2n1`
class 0

Can you handle `Fc1c(-c2cncc3cccc(Cl)c23)ncc2c(N3C[C@H]4CC[C@@H](C3)N4)nc(OC[C@]34CCCN3C[C@@H](F)C4)nc12` next?
class 0

// repeat for [O-][S+]1CCC(Oc2nc(N3C[C@H]4CC[C@@H](C3)N4)c3cnc(-c4cc(O)cc5ccccc45)c(F)c3n2)CC1 (stereo partly shown) and report
class 0

Would you kindly repeat that for CCc1cccc2cncc(-c3ncc4c(N5CC6CCC(C5)N6)nc(OCC56CCCN5C[C@H](F)C6)nc4c3F)c12 (mixture of isomers) ?
class 1

# repeat for `Oc1ccc(C(F)(F)F)c(-c2ncc3c(N4C[C@H]5CC[C@@H](C4)N5)nc(OCC45CCCN4CCC5)nc3c2F)c1`
class 0

And for `Oc1cc(-c2ncc3c(N4C[C@H]5CC[C@@H](C4)N5)nc(OCC45CCCN4CCC5)nc3c2F)c2c(Cl)c(F)ccc2c1` ?
class 1

# repeat for CN1CCC[C@H]1COc1nc(N2CC3CCC(CO)(C2)N3)c2cnc(-c3cc(O)cc4ccccc34)c(F)c2n1 (stereo partly shown) [Example 215, bis(2,2,2-trifluoroacetate)]
class 0

Record: CN1CCC[C@H]1COc1nc(N2CC3CCC(C=O)(C2)N3)c2cnc(-c3cc(O)cc4ccccc34)c(F)c2n1 (stereo partly shown)
class 0

Would you kindly repeat that for `CC#Cc1cccc2cccc(-c3ncc4c(N5C[C@H]6CC[C@@H](C5)N6)nc(OCC56CCCN5CCC6)nc4c3F)c12` ?
class 0

Please answer likewise for `C#CCc1ccc(O)cc1-c1ncc2c(N3C[C@H]4CC[C@@H](C3)N4)nc(OCC34CCCN3CCC4)nc2c1F`
class 0

Consider next the molecule `CN(C)C(=O)OC[C@H]1CC[C@@]2(COc3nc(N4CC5CCC(C4)N5)c4cnc(-c5cccc6cccc(Cl)c56)c(F)c4n3)CCCN12` in the same way.
class 1

How about `COCCNC(=O)O[C@@H]1C[C@@H](COc2nc(N3C[C@H]4CC[C@@H](C3)N4)c3cnc(-c4cccc5cccc(Cl)c45)c(F)c3n2)N(C)C1` ?
class 0

Now the molecule Nc1ccc(Cl)c(F)c1-c1ncc2c(N3CC4CCC(C3)N4)nc(OC[C@@]34CCCN3C[C@H](F)C4)nc2c1F (racemic) [Example 380, bis(2,2,2-trifluoroacetate)]
class 0

Can you handle `C#Cc1c(F)ccc2cc(O)cc(-c3ncc4c(N5C[C@H]6CC[C@@H](C5)N6)nc(OCC56CCCN5CCC6)nc4c3F)c12` next?
class 1

Please give the result for `CN1CCC[C@H]1CCOc1nc(N2C[C@H]3CC[C@@H](C2)N3)c2cnc(-c3cc(O)cc4ccccc34)c(F)c2n1` too.
class 0

Request: CC(C)c1ccccc1-c1ncc2c(N3CC4CCC(C3)N4)nc(OCC34CCCN3C[C@H](F)C4)nc2c1F (stereo partly shown)
class 1

Next entry: `Cc1cccc2cccc(-c3ncc4c(N5C[C@H]6CC[C@@H](C5)N6)nc(OCC56CCCN5CCC6)nc4c3F)c12`
class 0

And `Cc1nccn1CCOc1nc(N2C[C@H]3C[C@@H](O)[C@@H](C2)N3)c2cnc(-c3cccc4cccc(Cl)c34)c(F)c2n1` ?
class 0

Input `Fc1c(-c2cccc3cccc(OC(F)(F)F)c23)ncc2c(N3C[C@H]4CC[C@@H](C3)N4)nc(OCC34CCCN3CCC4)nc12`
class 0
